Catalogue of peptide exchange yield values
# EXPERIMENTAL TARGET: T1, HLA-B*44:05 (human)
# T1 construct: also called peptide-receptive MHC class I molecule
# MEASUREMENT NOTES: UV peptide exchange, anti-b2m ELISA

>  <BINDER>
GELAPSHGL

>  <peptide exchange yield>
50 to 75%

$$$$
>  <BINDER>
NEIGQELTGQEW

>  <peptide exchange yield>
> 75%

$$$$
>  <BINDER>
EEAGFPLAY

>  <peptide exchange yield>
50 to 75%

$$$$
>  <BINDER>
VEMTGKHQL

>  <peptide exchange yield>
20 to 50%

$$$$
>  <BINDER>
TEGGTQKTF

>  <peptide exchange yield>
50 to 75%

$$$$
>  <BINDER>
AEALGAAKKL

>  <peptide exchange yield>
20 to 50%

$$$$
>  <BINDER>
EEFCFSVRF

>  <peptide exchange yield>
50 to 75%

$$$$
>  <BINDER>
AELFLTKSF

>  <peptide exchange yield>
> 75%

$$$$
